Listing of entries alongside the reported pIC50.
Biological target: hNav1.7 (Homo sapiens)
Construct: expressed in transfected cells
Sequence (Q15858 whole entry): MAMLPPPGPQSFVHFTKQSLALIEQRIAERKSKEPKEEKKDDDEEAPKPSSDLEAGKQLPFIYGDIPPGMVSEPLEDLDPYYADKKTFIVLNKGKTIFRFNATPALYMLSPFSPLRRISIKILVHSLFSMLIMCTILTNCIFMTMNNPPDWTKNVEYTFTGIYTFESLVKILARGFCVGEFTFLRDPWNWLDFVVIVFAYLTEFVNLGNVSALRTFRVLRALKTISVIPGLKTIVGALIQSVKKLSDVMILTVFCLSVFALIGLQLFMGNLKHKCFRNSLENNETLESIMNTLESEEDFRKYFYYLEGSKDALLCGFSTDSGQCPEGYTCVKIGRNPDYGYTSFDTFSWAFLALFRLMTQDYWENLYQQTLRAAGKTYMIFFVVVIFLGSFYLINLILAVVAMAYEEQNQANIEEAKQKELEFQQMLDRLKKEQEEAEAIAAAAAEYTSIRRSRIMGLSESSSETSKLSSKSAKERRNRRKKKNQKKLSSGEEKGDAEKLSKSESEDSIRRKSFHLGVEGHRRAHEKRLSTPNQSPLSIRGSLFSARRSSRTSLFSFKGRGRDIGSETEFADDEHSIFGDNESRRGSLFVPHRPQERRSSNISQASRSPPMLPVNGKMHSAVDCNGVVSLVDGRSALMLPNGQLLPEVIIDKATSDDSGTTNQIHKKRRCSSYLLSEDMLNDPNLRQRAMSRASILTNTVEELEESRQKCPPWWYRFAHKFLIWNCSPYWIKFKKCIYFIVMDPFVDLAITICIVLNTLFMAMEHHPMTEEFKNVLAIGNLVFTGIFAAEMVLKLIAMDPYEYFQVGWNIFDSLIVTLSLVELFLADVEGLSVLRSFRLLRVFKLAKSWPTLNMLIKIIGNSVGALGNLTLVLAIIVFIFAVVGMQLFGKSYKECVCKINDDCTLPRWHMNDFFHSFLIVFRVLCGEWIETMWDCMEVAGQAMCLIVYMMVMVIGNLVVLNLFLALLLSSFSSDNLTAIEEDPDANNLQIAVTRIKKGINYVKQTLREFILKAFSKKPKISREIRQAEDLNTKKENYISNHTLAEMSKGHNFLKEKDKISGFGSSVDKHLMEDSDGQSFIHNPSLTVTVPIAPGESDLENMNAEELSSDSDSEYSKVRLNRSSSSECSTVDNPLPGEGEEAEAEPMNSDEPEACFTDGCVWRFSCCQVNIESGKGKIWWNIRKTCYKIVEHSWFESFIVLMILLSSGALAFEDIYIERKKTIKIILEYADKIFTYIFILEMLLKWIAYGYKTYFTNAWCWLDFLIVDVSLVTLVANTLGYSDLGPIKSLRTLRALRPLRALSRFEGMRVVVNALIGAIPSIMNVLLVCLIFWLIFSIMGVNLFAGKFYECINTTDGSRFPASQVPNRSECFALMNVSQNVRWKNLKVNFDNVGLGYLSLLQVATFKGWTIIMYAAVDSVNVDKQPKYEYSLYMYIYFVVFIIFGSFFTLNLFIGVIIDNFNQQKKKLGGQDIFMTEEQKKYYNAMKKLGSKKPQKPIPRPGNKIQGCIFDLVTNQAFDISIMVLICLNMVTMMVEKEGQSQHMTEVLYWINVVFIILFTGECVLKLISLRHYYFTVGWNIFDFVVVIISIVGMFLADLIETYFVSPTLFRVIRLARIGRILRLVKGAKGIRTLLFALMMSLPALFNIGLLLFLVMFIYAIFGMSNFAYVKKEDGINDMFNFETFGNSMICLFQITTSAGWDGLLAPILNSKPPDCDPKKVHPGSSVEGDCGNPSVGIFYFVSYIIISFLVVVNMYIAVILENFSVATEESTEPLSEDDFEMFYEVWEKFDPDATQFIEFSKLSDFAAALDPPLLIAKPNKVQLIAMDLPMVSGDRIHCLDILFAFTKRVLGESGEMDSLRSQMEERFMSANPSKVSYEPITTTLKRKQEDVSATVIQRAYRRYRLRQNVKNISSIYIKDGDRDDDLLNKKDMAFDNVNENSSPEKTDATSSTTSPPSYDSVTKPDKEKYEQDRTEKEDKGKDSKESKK
Sequence (Q07699 19-218 partner): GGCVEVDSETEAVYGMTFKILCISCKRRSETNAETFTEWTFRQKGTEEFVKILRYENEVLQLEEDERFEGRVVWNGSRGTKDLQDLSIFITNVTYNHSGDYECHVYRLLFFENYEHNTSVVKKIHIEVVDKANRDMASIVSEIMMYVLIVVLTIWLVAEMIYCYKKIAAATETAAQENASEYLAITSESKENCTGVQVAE
Test: Tritiated compound competitive binding to membranes from cells expressing hNav1.7 and the β1 subunit
Details: competition with 100 pM [3H]compound, 18 h, room temperature; "this model or another representative model of inhibition"; read-out: Nav1.7 inhib. in vitro
Procedure: Example 5: Tritiated Compound Binding to Membranes Isolated from Cells that Heterologously Express hNav1.7 and the β1 Subunit Preparation of membranes containing recombinantly expressed sodium channels: Frozen recombinant cell pellets were thawed on ice and diluted to 4 times the cell pellet weight with ice cold 50 mM Tris HCl, pH 7.4 buffer. […] Protein concentrations were determined by Bradford Assay and the membranes were stored at −80° C. […]
Lab note: report pIC50 as minus log10 of the concentration in molar units, number only.

Check out these entries, answers already filled in.
Record summary for N#C[C@H]1CCN([C@H]2CCOc3cc(S(=O)(=O)Nc4ncns4)ccc32)[C@@H](c2ccc(F)cc2)C1 [D] : reported pIC50 = 7.96

Record summary for C[C@@H]1C[C@H](c2cccc(C(F)(F)F)c2)CCN1[C@H]1CCOc2cc(S(=O)(=O)Nc3ccncn3)c(F)cc21 [Example 4] : reported pIC50 = 8.47

Record summary for O=S(=O)(Nc1ncns1)c1ccc2c(c1)OCC[C@@H]2N1CC[C@H](C(F)F)C[C@@H]1c1ccc(F)cc1 [E] : reported pIC50 = 8.59

Record summary for O=S(=O)(Nc1ccncn1)c1cc2c(cc1F)[C@@H](N1CC[C@@](O)(C(F)(F)F)C[C@H]1c1ccc(F)cc1)CCO2 [Example 2] : reported pIC50 = 9.30

Record summary for O=S(=O)(Nc1ncns1)c1ccc2c(c1)OCC[C@@H]2N1CC[C@@](O)(C(F)(F)F)C[C@H]1c1ccc(F)cc1 [A] : reported pIC50 = 8.96

---
Record summary for CS(=O)(=O)[C@@H]1CCN([C@H]2CCOc3cc(S(=O)(=O)Nc4ncns4)ccc32)[C@H](c2ccc(F)cc2)C1 [F] : reported pIC50 = 8.06

Record summary for O=S(=O)(Nc1ccncn1)c1cc2c(cc1F)[C@@H](N1CC[C@@H](OC(F)F)C[C@H]1c1ccc(F)cc1)CCO2 [Example 3] : reported pIC50 = 8.66

Source of measurements: patent US10793550B2
